- Tested on: Streptococcus pneumoniae
- testSummary: Antimicrobial activity against inducible macrolide, lincosamide, streptogramin-resistant Streptococcus pneumoniae 134 GRM
- Format: functional
outcomeMeasure: MIC (µg/mL)
// units = µg/mL; emit number, no label

Noted for CC[C@H]1OC(=O)[C@H](C)[C@@H](O[C@H]2C[C@@](C)(OC)[C@@H](OC(=O)CCN3CCN(c4cc5c(cc4F)c(=O)c(C(=O)O)cn5C4CC4)CC3)[C@H](C)O2)[C@H](C)[C@@H](O[C@@H]2O[C@H](C)C[C@H](N(C)C)[C@H]2O)[C@](C)(OC)C[C@@H](C)NC(=O)[C@H](C)[C@@H](O)[C@]1(C)O : its MIC reads 8

// data source = ChEMBL document CHEMBL1155520
